Just for reference, ChEMBL document CHEMBL5120860 is where these values come from.

assay: Cytotoxicity against human CD4+ T cells derived from cARC-suppressed donors with HIV assessed as cell viability at 1 uM incubated for 24 hrs by trypan blue staining based analysis relative to control; format: toxicity, CD4+ve Th; conditions: primary CD4+ T cells from cART-suppressed donors with HIV, read-out: Activity
assay-metric: viability at 24 h, 1 µM (%)
Give the number; % is assumed, so skip it.

compound `CC1=C[C@H]2O[C@@H]([C@@H]3[C@@]4(C)CCCC(C)(C)[C@@H]4C=C[C@@]3(C)O)C=C(CO)[C@H]2CC1=O` , viability at 24 h, 1 µM observed: 82.4
